- target_system: UPR counterscreen luciferase reporter, luminescence
- assay_protocol: luciferase reporter activation, UPR counterscreen line – cell-based, luminescence, counter-screen for adaptive UPR activator project, dose response (AID 489027)
Active and inactive are the calls of the source. The rule behind the calls is not given here.
Please state which outcome applies, choosing from active, inactive

INSERT INTO assay_data (molecule, label_value) VALUES
  ('Cc1ccc(NC(=O)COc2ccc(/C=C3/SC(=Nc4ccccc4)N(Cc4cccnc4)C3=O)cc2)cc1', 'active');

Challenge: Please state the recorded outcome for this molecule: Oc1cc(-c2ccc(N3CCCCC3)nc2)cc2cccnc12
Response given: inactive

Challenge: Please state the recorded outcome for this molecule: CCC(=O)Nc1ccc(-c2cc(-c3ccccc3)nc(-c3ccc(NC(=O)CC)cc3)n2)cc1
Response given: inactive

Challenge: Please state the recorded outcome for this molecule: FC(F)(F)c1nnc2c(Sc3ccccc3)nc3ccc(Cl)cc3n12
Response given: active
